Here, each record is paired with measured self-cleavage kobs at 2500 uM GlcN6P data.
B1: glmS ribozyme (parent)
chain: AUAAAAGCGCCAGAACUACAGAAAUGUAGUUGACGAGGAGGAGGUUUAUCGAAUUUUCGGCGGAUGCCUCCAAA

- Variants of: B1
- assay.info: self-cleavage kobs at 2500 uM GlcN6P; higher = faster cleavage; RNA array
- condition.context: with glucosamine-6-phosphate
Fewer inactive variants are shown than the library holds.

>  <alteration>
G29C A42C

>  <self-cleavage kobs at 2500 uM GlcN6P>
< 1e-05 s⁻¹

$$$$
>  <alteration>
A33G A36G G38U C61U C71A

>  <self-cleavage kobs at 2500 uM GlcN6P>
< 1e-05 s⁻¹

$$$$
>  <alteration>
G7U G41U A53G

>  <self-cleavage kobs at 2500 uM GlcN6P>
< 1e-05 s⁻¹

$$$$
>  <alteration>
C10A G59C

>  <self-cleavage kobs at 2500 uM GlcN6P>
< 1e-05 s⁻¹

$$$$
>  <alteration>
A42G U56A G60U

>  <self-cleavage kobs at 2500 uM GlcN6P>
< 1e-05 s⁻¹

$$$$

Data request: For the variant A14C A15C G38U , what self-cleavage kobs at 2500 uM GlcN6P is on record?
Data returned: < 1e-05 s⁻¹

Cited source: the supplement of paper PMC7125110
